- Measured target: Eukaryotic initiation factor 4A-I (Homo sapiens, UniProt P60842, T158A)
- Assay explanation: Inhibition of human recombinant N-terminal His6-tagged eIF4A T158A mutant expressed in Escherichia coli BL21 CodonPlus cells using ATP and yeast RNA as substrate preincubated with enzyme for 20 mins followed by susbtrate addition and measured after 4 hrs by Malachite green ATPase assay
pIC50: −log10 of the molar value.
Assay metric: pIC50

QUERY: State its pIC50 on Eukaryotic initiation factor 4A-I (Homo sapiens, UniProt P60842, T158A): CCCCc1ccc(-c2ccc(-c3cc(C(=O)O)c4cc([N+](=O)[O-])ccc4n3)o2)cc1
RESULT: < 4.30

* * *

- Measured target: Eukaryotic initiation factor 4A-I (Homo sapiens)
- Assay explanation: Inhibition of human recombinant N-terminal His6-tagged eIF4A expressed in Escherichia coli BL21 CodonPlus cells using ATP and yeast RNA as substrate preincubated with enzyme for 20 mins followed by susbtrate addition and measured after 4 hrs by Malachite green ATPase assay
pIC50: −log10 of the molar value.
Returns one of label 1 or label 0; label 1 when pIC50 is >= 4.

Sample smiles	Label
O=C(O)c1cc(-c2ccc(-c3cccc4ccccc34)o2)nc2ccc([N+](=O)[O-])cc12	label 1

QUERY: Test whether the compound CCCOc1ccccc1-c1ccc(-c2cc(C(=O)O)c3cc([N+](=O)[O-])ccc3n2)o1 records pIC50 of 4 or higher.
RESULT: label 1

QUERY: Follow-up item: CCCCc1ccc(-c2ccc(-c3cc(C(=O)O)c4cc(CC)ccc4n3)o2)cc1
RESULT: label 0

* * *

- Measured target: Eukaryotic initiation factor 4A-I (Homo sapiens)
- Assay explanation: Inhibition of human recombinant N-terminal His6-tagged eIF4A expressed in Escherichia coli BL21 CodonPlus cells using ATP and yeast RNA as substrate preincubated with enzyme for 20 mins followed by susbtrate addition and measured after 4 hrs by Malachite green ATPase assay
Assay metric: IC50 (µM)
One number for each entry, in µM.

Sample smiles	Assay metric	Quantity unit	Result value
CCCCc1ccc(-c2ccc(-c3cc(C(=O)O)c4cc(C)cc(C)c4n3)o2)cc1	IC50	µM	111

Please report IC50 for every entry that follows.
1. CCCCc1ccc(-c2ccc(-c3cc(C(=O)O)c4cc(F)ccc4n3)o2)cc1
2. CCCCc1ccc(-c2ccc(-c3cc(C(=O)O)c4ccc(F)cc4n3)o2)cc1

RESULT:
1. 54.1
2. 46.6

* * *

- Measured target: UniProt P60842
- Assay explanation: Inhibition of human recombinant N-terminal His6-tagged eIF4A expressed in Escherichia coli BL21 CodonPlus cells using ATP and yeast RNA as substrate preincubated with enzyme for 20 mins followed by susbtrate addition and measured after 4 hrs by Malachite green ATPase assay
Assay metric: IC50

Please report IC50 for every entry that follows.
1. CCCCc1ccc(-c2ccc(-c3cc(C(=O)O)c4ccccc4n3)o2)cc1
2. O=C(O)c1cc(-c2ccc(-c3ccccc3)o2)nc2ccc([N+](=O)[O-])cc12
3. CCCCc1ccc(-c2ccc(-c3cc(C(=O)OCC)c4cc([N+](=O)[O-])ccc4n3)o2)cc1
4. CCCCc1ccc(-c2cncc(-c3cc(C(=O)O)c4cc([N+](=O)[O-])ccc4n3)c2)cc1
5. CCCCc1ccc(-c2ccc(-c3cc(C(=O)O)c4cc(N)ccc4n3)o2)cc1

RESULT:
> 150 µM
> 150 µM
> 150 µM
> 150 µM
> 150 µM
